Each item that follows carries a reported melting point.
Where a name gives a salt, the structure may show the parent alone.

Examples with their reported melting point follow.
c1cncc(OCCOc2nccnc2N2CCNCC2)c1 (as salt: hydrochloride) [Example 150]; 170 to 175 °C
c1ccc2c(c1)OC[C@@H](COc1nccnc1N1CCNCC1)O2 (as salt: hydrochloride) [Example 148]; 160 °C (dec.)

Can you share its melting point? I mean this compound: c1ccc(OCCOc2cccnc2N2CCNCC2)cc1 (as salt: hydrochloride) [Example 185]
91 to 120 °C

----------
Where a name gives a salt, the structure may show the parent alone.
Quick list: melting point per entry.

Cc1ccc(OCCOc2nccnc2N2CCNCC2)cn1 (as salt: hydrochloride) [Example 153]; 157 °C (dec.)
CN(CCOc1ccccc1)c1nccnc1N1CCNCC1 (as salt: fumarate) [Example 47]; 154 °C
c1ccc2nc(N3CCNCC3)c(OCCOc3cncnc3)nc2c1 [Example 166]; 115 to 117 °C
COCc1cccc(OCCOc2nccnc2N2CCNCC2)c1 (as salt: maleate) [Example 109]; 114 to 115 °C
COc1ccc(OCCOc2nccnc2N2CCNCC2)cn1 (as salt: maleate) [Example 204]; 151.8 to 152.6 °C
OCc1cccc(OCCOc2nccnc2N2CCNCC2)c1 (as salt: maleate) [Example 108]; 123.2 to 123.5 °C

Turning now to a further compound:
Looking for the measured melting point of c1ccc2c(c1)CCC(COc1nccnc1N1CCNCC1)C2 (centres unmarked) (as salt: fumarate) [Example 207] , can you help?
186 to 188 °C

----------
Where a name gives a salt, the structure may show the parent alone.
Endpoint: melting point

Looking for the measured melting point of c1cnc2cc(OCCOc3nccnc3N3CCNCC3)ccc2c1 (as salt: maleate) , can you help?
156 to 158 °C

----------
Counter-ions that a name gives are not always drawn.
Measured melting point, listed per entry for reference.

Here is how some compounds turned out for melting point.
Cc1ccc(OCCOc2nccnc2N2CCNC[C@H]2C)cn1 (as salt: fumarate); 115 °C (dec.)
Fc1cccc(F)c1OCCOc1nccnc1N1CCNCC1; 101 to 102 °C
CSc1ncccc1OCCOc1nccnc1N1CCNC[C@H]1C (as salt: fumarate); 179 °C
c1ccc(Nc2cccc(OCCOc3nccnc3N3CCNCC3)c2)cc1 (as salt: fumarate); 78 to 81 °C
c1cncc(OCCOc2nc3cscc3nc2N2CCNCC2)c1 (as salt: maleate); 152 to 156 °C

Requested read-out: melting point. Entry: c1cnc2ccc(COc3nccnc3N3CCNCC3)cc2c1 (as salt: fumarate)
207 to 209 °C

----------
Counter-ions that a name gives are not always drawn.
Recorded measurements of melting point, one per entry

c1cnc(N2CCNCC2)c(OCCOc2ccc3c(c2)OCCO3)n1 (as salt: hydrochloride); 158 to 160 °C
c1coc(COc2nccnc2N2CCNCC2)c1 (as salt: maleate); 118 to 120 °C
c1ccc(-c2ccccc2OCCOc2nccnc2N2CCNCC2)cc1; 101 to 103 °C

Name the recorded melting point for c1cnc2c(OCCOc3nccnc3N3CCNCC3)cccc2c1 .
98 to 100 °C

GET /values?readout=melting point&item= c1ccc(OCCOc2nc3ccccc3nc2N2CCNCC2)cc1 (as salt: hydrochloride)
123 to 126 °C

----------
Where a name gives a salt, the structure may show the parent alone.
Consider the following compounds and their measured melting point readings.

A selection of reference data follows.
COc1ccccc1/C=C/COc1nccnc1N1CCNCC1 (as salt: maleate) [Example 212]; 136 °C (dec.)
Fc1cc2nc(OCCOc3cccnc3)c(N3CCNCC3)nc2cc1F (as salt: maleate) [Example 163]; 110 to 115 °C

Can you look up the measured melting point of c1ccc(Nc2ccc(OCCOc3nccnc3N3CCNCC3)cc2)cc1 (as salt: maleate) [Example 111] for me?
132 to 133 °C

Value lookup for melting point; key = Fc1cc(F)cc(OCCOc2nccnc2N2CCNCC2)c1 (as salt: toluenesulfonate) [Example 114]
118 to 119 °C

# lookup: melting point of c1cnc(N2CCNCC2)c(OCCOc2ccc3cc[nH]c3c2)n1 [Example 142]
111 to 113 °C

Look at this compound and give its reported melting point. Clc1ccc(OCCOc2nc3ccccc3nc2N2CCNCC2)cc1 [Example 39]
108 to 112 °C

Record request: melting point value, item N#Cc1ccccc1OCCOc1nccnc1N1CCNCC1 (as salt: maleate) [Example 96]
165 to 166 °C

----------
Quick reference for melting point among some compounds
Counter-ions that a name gives are not always drawn.

In the examples that follow, each entry is paired with its recorded melting point.
CC1(C)Cc2cccc(OCCOc3nccnc3N3CCNCC3)c2O1 (as salt: maleate) [Example 158]; 156 to 157 °C
c1ccc(OCCCCOc2nccnc2N2CCNCC2)cc1 (as salt: hydrochloride) [Example 98]; 129 to 131 °C
C[C@@H]1CNCCN1c1nccnc1OCCOc1cccnc1 (as salt: hydrochloride) [Example 173]; 180 to 183 °C
CN1CCN(c2nccnc2OCC2COc3ccccc3O2)CC1 (stereo not drawn) (as salt: hydrochloride) [Example 169]; 160 to 167 °C
Cc1nc(OCCOc2ccccc2)c(N2CCNCC2)nc1C (as salt: hydrochloride) [Example 183]; 138 to 140 °C
CNc1ccc2cccc(OCCOc3nccnc3N3CCNCC3)c2n1 [Example 181]; 54 to 56.5 °C

What melting point value was documented for this compound, c1ccc2c(c1)CCC(COc1nc3ccccc3nc1N1CCNCC1)O2 (stereo not drawn) (as salt: salt) [Example 168] ?
202 to 204 °C

Bench note: what melting point did Nc1cccc2ccc(OCCOc3nccnc3N3CCNCC3)cc12 (as salt: maleate) [Example 145] show?
120 °C (dec.)

Find the recorded melting point belonging to Fc1cccc(OCCOc2nccnc2N2CCNCC2)c1F (as salt: fumarate) [Example 105] and report it.
125 to 130 °C

----------
Below, each entry is listed with its recorded melting point.
Structures can show the parent of a compound that is named as a salt.

Worked cases, melting point given:
Cc1cccc(CCCOc2nccnc2N2CCNCC2)n1 (as salt: maleate); 134 to 136 °C
Fc1ccccc1OCCOc1nccnc1N1CCNCC1 (as salt: maleate); 171 to 173 °C
c1cncc(OCCOc2nc3ccccc3nc2N2CCNCC2)c1 (as salt: maleate); 137 to 139 °C
CCOc1ncccc1OCCOc1nccnc1N1CCNCC1 (as salt: fumarate); 186 °C

Consider the additional compound presented here.
Any idea what its melting point is? The compound is c1ccc2c(c1)OC(COc1nccnc1N1CCNCC1)CS2 (centres unmarked) (as salt: fumarate)
178 to 179 °C

----------
// reported melting point for each item listed
Structures can show the parent of a compound that is named as a salt.

c1cnc(N2CCNCC2)c(OCCOc2ccsc2)n1 (as salt: hydrochloride); 75 to 85 °C
c1cc(CCCOc2nccnc2N2CCNCC2)ccn1 (as salt: maleate); 90 to 91 °C
NC(=O)c1cccc(OCCOc2nccnc2N2CCNCC2)c1 (as salt: maleate); 134 to 137 °C
C[C@@H]1CNC[C@H](C)N1c1nccnc1OCCOc1cccnc1 (as salt: fumarate); 157 °C (dec.)
Fc1cccc(OCCOc2nccnc2N2CCNCC2)c1 (as salt: maleate); 141 to 143 °C
c1cc(OCCOc2nccnc2N2CCNCC2)c2ncoc2c1 (as salt: maleate); 191 to 193 °C
CC1CNCCN1c1nc2ccccc2nc1OCCOc1cccc2c1OCO2 (stereo not drawn) (as salt: hydrochloride); 133 to 138 °C
CC(=O)Nc1cccc(OCCOc2nccnc2N2CCNCC2)c1 (as salt: maleate); 154 to 155 °C
c1ccc2c(OCCOc3nccnc3N3CCNCC3)csc2c1 (as salt: maleate); 147 to 149 °C
C[C@@H]1CNCCN1c1nccnc1OCCOc1cccnc1Br (as salt: fumarate); 154 °C

What does the record list as melting point for FC(F)(F)c1ccccc1OCCOc1nccnc1N1CCNCC1 ?
79 to 80 °C

If you can, please state the reported melting point value of c1cc(OCCOc2nccnc2N2CCNCC2)ccn1 (as salt: hydrochloride) .
170 °C (dec.)

Value source: patent US7071180B2
